Test: TLR3 IRF3 reporter activation blockers – cell-based, poly I:C stimulus, luciferase, 10K MLSCN set, primary screen (AID 602277)
Settings: HEK293-TLR3 RL24 IRF3 luciferase reporter, at 10 µM, stronger effect = higher value

molecule	inhibition (%)
CCN(Cc1nc2ccccc2c(=O)[nH]1)Cc1nc2cc(OC)c(OC)cc2c(=O)[nH]1	-12.6
Cc1noc(C)c1C(=O)N1CCN(C(=O)c2sc3cc(Cl)ccc3c2Cl)CC1	9.68
CC(C)(C)NC(=O)CN(C(=O)C1CSC(=O)C1)c1ccc2c(c1)OCCO2 (stereo not given)	-7.89
CC1(C)NC(=O)N(CC(O)COc2ccc(-c3ccccc3)cc2)C1=O (stereo not given)	1.46
COc1ccc(C(=O)COC(=O)CCn2nnc(-c3cccs3)n2)cc1	-7.1
COc1ccc(N2CCN(c3ncnc4c3cnn4-c3ccc(C)cc3C)CC2)cc1	-20.2
COc1ccc(NC(=O)Nc2ccc(N3CCCC3=O)cc2)cc1OC	-16.1
CN(c1ccccc1C(=O)NCC1CCCO1)S(C)(=O)=O (stereo not given)	14.6
CCCC(=O)N1CCN(c2ccc(NC(=O)c3ccc(Br)o3)cc2)CC1	-42.4
Cc1cccc(C)c1NC(=O)c1cc(S(=O)(=O)N2CCOCC2)ccc1F	26.3
ON=C1/C(=N\O)CC2(C/C1=N/O)OCCO2	4.87
CCCn1c2c(c(O)c(C(=O)Nc3ccc(C)cn3)c1=O)CCCC2	10.7
COc1ccc(NC(=O)CC2CCCCC2)cc1OC	-23
COC(=O)C1=C(C)NC(C)=C(C(=O)OC)C1c1cc2cc(C)ccc2[nH]c1=O	30.9
CC(=O)Nc1ccc(S(=O)(=O)N2CCN(C(=O)CCC3CCCC3)CC2)cc1	10.7
Cc1cccc(NC(=O)CN(C)S(=O)(=O)c2ccccc2)n1	15.7
Cn1c(=O)cc(SCC(=O)NCc2cccnc2)c2ccccc21	9.63
Cc1nnc(SCCn2c(N3CCC(Cc4ccccc4)CC3)nc3c2c(=O)[nH]c(=O)n3C)s1	20.9
CC(=O)Nc1cccc(NC(=O)CSc2nnnn2C)c1	13.5
O=C(COc1ccc(S(=O)(=O)NC2CCCCC2)cc1)NCc1ccccn1	1.29
O=C(C1COc2ccccc2O1)N1CCCC1 (stereo not given)	3.67
CC1Oc2ccccc2N(CC(=O)NCc2cccs2)C1=O (stereo not given)	-12.6
Cc1ccc(S(=O)(=O)N2CCN(C(=O)N3CCOCC3)C2c2ccc(N(C)C)cc2)cc1 (stereo not given)	8.2
CCOC(=O)c1cc2c(=O)n3cccc(C)c3nc2n(Cc2ccco2)c1=NC(=O)c1cccnc1	-0.151
COc1ccc(-c2cc(N3CCCC3)n3ncnc3n2)cc1	-11.7
COc1nc(OC)nc(N2CCC(NC(=O)C(Cc3ccc(C(C)C)cc3)NC(C)=O)CC2)n1 (stereo not given)	11.8
COC(=O)c1ccc(Oc2nc(NC(C)C)nc(N(C)C)n2)cc1	15.7
Cc1ccc(-n2c(SCC3CCCCO3)nnc2-c2ccco2)cc1 (stereo not given)	25.2
O=C(CN1C(=O)CC(c2ccco2)Sc2ccccc21)Nc1ccc2c(c1)OCCO2 (stereo not given)	9.54
O=C(/C=C/N1CCOCC1)c1ccc(-c2ccccc2)cc1	-53.1
O=C(O)c1cccc(COCC(F)(F)C(F)F)c1	5.49
Cc1cc(C(=O)Nc2sc3c(c2C#N)CCCCC3)cs1	-119
Cc1sc2nc(SCc3nc4ccccc4[nH]3)n(Cc3ccco3)c(=O)c2c1C	-54.9
CCN(CC)S(=O)(=O)c1ccc(NC(=O)c2cccc3c2C(=O)N(CCOC)C3)cc1	26.3
CN(CC(=O)Nc1ccc(F)c(Cl)c1)S(=O)(=O)c1cccc2nsnc12	98.7

* * *

Below, each entry is listed with its recorded fluorescence slope.
Molecular target: Voltage-gated potassium channel subunit beta-2 (Rattus norvegicus)
Experiment: inhibitors of rat Kvbeta2 reductase activity – biochemical, NADPH fluorescence, primary screen (AID 622);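 also: slope of raw intensity against log time taken from 70 to 1610 s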
Conditions: recombinant KvBeta, 4-cyanobenzaldehyde reduction, at 10 µM, stronger effect = higher value

molecule	fluorescence slope
COc1ccccc1-c1nc(C#N)c(N2CCN(c3ccccc3)CC2)o1	-0.495
Nn1cc(-c2ccccc2)nc1SCC(=O)N1CCN(S(=O)(=O)c2ccccc2)CC1	-0.421
O=c1[nH]c2ccccc2nc1NCCN1CCOCC1	-0.553
CC(=O)c1c(C)[nH]c(C(=O)NC2=NCCS2)c1C	-0.571
Cc1ccc(-c2nn(-c3ccccc3)cc2/C=C(\C#N)c2cccc(C#N)c2)o1	-0.273
Cc1cc(NC(=O)CCC(=O)N(CCc2ccccc2)C(C(=O)NC2CCCC2)c2ccco2)no1 (stereo not given)	-0.483
C(=N\n1cnnc1)/c1cccc(OCCOc2ccccc2)c1	-0.351
O=C(CN1CCOCC1)Nc1cccc(C(=O)Nc2cccc(C(F)(F)F)c2)c1	-0.574
CC1(C)NC(=O)N(CNc2cc(Cl)ccc2Cl)C1=O	-0.435
COc1ccccc1CCNC(=O)C1CCCO1 (stereo not given)	-0.401
CCOC(=O)c1[nH]c(C)c(C(=O)N2CCN(c3ccc(F)cc3)CC2)c1C	-0.451
COc1ccc(-c2nnc(SCC(=O)N3CCCCC3)o2)cc1OC	-0.543
Cc1ccc(C)c(N2CCN(CCCNC(=O)Cn3cc4c(n3)CCCCC4)CC2)c1	-0.619
O=C(Nc1ccncc1)c1cc2ccccc2o1	-0.382
COc1cc(C)c(Br)cc1S(=O)(=O)N1CCOCC1	-0.461

* * *

Here the recorded NADPH fluorescence slope is given for each entry.
Molecular target: Voltage-gated potassium channel subunit beta-2 (Rattus norvegicus)
Test: enhancers of rat Kvbeta2 NADPH turnover – biochemical, NADPH fluorescence, primary screen (AID 623);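 also: fluorescence intensity change per second fitted from 20 to 320 s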
Settings: Recombinant KvBeta, NADPH fluorescence decrease slope, 10 min; at 10 µM; stronger effect = lower value

compound	NADPH fluorescence slope
Cc1cc(N2C(=O)C3C4C=CC(C4)C3C2=O)ccc1Br (stereo unspecified)	-5.3e-05
COc1ccc2cc(C#N)c(N3CCN(Cc4nnnn4CCC(C)C)CC3)nc2c1	-3.8e-05
CCC(C)(C)n1nnnc1C(c1ccc(OC)c(OC)c1)N1CCN(c2ccccc2)CC1 (stereo unspecified)	-0.000151
COCc1cc(C)nc(Nc2ccc(C)cc2C)c1C#N	5.1e-08
Cc1ccc(S(=O)(=O)N2CCOCC2)cc1C(=O)Nc1ccccn1	-3.9e-05
COCCN(C(=O)CNC(=O)c1ccco1)C(C(=O)NC1CCCCC1)c1cccc(OC)c1 (stereo unspecified)	-2e-05
CC(=O)N1C(=O)C2(C(C#N)=C(N)Oc3cc(C)oc(=O)c32)c2ccccc21 (stereo unspecified)	-0.00027
Cc1cc(=O)oc2ccc(OCC(=O)N(Cc3ccc(F)cc3)Cc3ccco3)cc12	2.4e-05
c1ccc(-c2nnc(SCc3nc4ccccc4[nH]3)o2)cc1	-1.4e-05
Cc1cccc(N2CCN(C(=O)Cn3ccc4ccccc4c3=O)CC2)c1C	2.6e-06
CN(c1ccccc1C(=O)NCC1CCCO1)S(C)(=O)=O (stereo unspecified)	-3.7e-05
COc1ccccc1N1CCN(C(CNS(=O)(=O)c2cc(F)ccc2F)c2cccnc2)CC1 (stereo unspecified)	-5.8e-05
CN1C(=O)C(O)(CC(=O)c2ccc(F)cc2)c2cc(Br)ccc21 (stereo unspecified)	-7.2e-05
CC(c1ccco1)N(C(=O)COc1ccc(Cl)cc1Cl)c1ccccn1 (stereo unspecified)	-6.4e-05
O=S(=O)(NCC1CCCO1)c1cccc(C(F)(F)F)c1 (stereo unspecified)	4.6e-05
COc1ccccc1OCc1ccc(C(=O)NC(C)(C)C)o1	5.2e-05
CNC(=O)CSc1nc2c(c(=O)n(C)c(=O)n2C)n1Cc1ccc(C)cc1	-5.6e-05
COc1cccc(OCC(O)CN2CCN(CCO)CC2)c1 (stereo unspecified)	-0.000292
CCOC(=O)C1CCN(CC(=O)Nc2c(C(=O)OC)[nH]c3ccc(Cl)cc23)CC1	-6.2e-05
Cn1c(C(=O)NCCC2=CCCCC2)cc2c(=O)n3ccccc3nc21	1.2e-05
COc1ccc(Br)cc1S(=O)(=O)N1CCOCC1	-3.5e-05
COc1ccccc1N1CCN(c2cc(N3CCCC3)nc(C)n2)CC1	-7.2e-05
O=C(CSc1nc2cc(S(=O)(=O)N3CCOCC3)ccc2o1)NC1CCCc2ccccc21 (stereo unspecified)	-8.5e-05
CCOc1ccc(NS(=O)(=O)c2cc(Cl)ccc2OC)cc1	1.3e-05
Cc1ccccc1NS(=O)(=O)c1ccc(NC(=O)c2ccco2)cc1	1.9e-07
COc1ccc(C)cc1S(=O)(=O)N(C)CC(=O)Nc1ccc2c(c1)OCCO2	3.4e-05
CC(C)(C)n1nnnc1CN(Cc1ccco1)Cc1cc2cc3c(cc2[nH]c1=O)OCO3	-5.7e-05
c1ccc(-c2cc(CSc3nc4ccccc4[nH]3)on2)cc1	-8.1e-05
CCOC(=O)c1ccc(NS(=O)C23CC4CC(CC(C4)C2)C3)cc1 (stereo unspecified)	-9e-06
Cc1nn(-c2nc3ccccc3s2)c(C)c1Oc1ccccc1O	-2.9e-06
CCOC(=O)c1ccccc1NC(=O)COC(=O)C1=COCCO1	-3.3e-05
